# TESTED TARGET: H1047R PIK3CA enzyme (Homo sapiens, UniProt P42336, H1047R)
# Sequence (P42336 whole entry H1047R): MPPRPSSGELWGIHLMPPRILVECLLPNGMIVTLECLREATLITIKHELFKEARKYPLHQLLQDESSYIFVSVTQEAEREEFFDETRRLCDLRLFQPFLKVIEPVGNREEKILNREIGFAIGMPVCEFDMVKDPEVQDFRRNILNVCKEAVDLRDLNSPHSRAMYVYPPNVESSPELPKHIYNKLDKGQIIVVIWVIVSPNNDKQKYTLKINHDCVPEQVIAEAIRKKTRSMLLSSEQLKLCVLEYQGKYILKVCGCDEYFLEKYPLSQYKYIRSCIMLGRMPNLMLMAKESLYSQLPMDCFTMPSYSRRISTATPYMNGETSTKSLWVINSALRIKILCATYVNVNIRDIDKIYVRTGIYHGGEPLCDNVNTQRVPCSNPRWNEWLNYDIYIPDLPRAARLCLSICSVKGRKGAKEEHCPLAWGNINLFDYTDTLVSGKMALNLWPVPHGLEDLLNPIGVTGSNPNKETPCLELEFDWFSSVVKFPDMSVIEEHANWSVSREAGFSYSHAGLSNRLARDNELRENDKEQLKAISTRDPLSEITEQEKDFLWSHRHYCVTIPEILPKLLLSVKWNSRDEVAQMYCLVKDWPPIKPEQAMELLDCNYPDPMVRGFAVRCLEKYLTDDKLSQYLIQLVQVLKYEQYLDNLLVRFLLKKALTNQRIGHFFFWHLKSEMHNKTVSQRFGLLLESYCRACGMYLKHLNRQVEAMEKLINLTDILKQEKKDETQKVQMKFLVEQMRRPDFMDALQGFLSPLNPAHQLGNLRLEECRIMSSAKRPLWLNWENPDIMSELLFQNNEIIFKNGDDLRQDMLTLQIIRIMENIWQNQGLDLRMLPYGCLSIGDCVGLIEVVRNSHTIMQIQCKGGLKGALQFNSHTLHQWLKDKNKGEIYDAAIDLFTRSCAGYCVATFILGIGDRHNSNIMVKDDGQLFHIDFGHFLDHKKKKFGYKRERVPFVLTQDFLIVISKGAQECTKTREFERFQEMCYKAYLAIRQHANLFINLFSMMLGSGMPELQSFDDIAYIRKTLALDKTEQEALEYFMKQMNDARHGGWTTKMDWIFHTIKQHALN
# Sequence (P27986 whole entry partner): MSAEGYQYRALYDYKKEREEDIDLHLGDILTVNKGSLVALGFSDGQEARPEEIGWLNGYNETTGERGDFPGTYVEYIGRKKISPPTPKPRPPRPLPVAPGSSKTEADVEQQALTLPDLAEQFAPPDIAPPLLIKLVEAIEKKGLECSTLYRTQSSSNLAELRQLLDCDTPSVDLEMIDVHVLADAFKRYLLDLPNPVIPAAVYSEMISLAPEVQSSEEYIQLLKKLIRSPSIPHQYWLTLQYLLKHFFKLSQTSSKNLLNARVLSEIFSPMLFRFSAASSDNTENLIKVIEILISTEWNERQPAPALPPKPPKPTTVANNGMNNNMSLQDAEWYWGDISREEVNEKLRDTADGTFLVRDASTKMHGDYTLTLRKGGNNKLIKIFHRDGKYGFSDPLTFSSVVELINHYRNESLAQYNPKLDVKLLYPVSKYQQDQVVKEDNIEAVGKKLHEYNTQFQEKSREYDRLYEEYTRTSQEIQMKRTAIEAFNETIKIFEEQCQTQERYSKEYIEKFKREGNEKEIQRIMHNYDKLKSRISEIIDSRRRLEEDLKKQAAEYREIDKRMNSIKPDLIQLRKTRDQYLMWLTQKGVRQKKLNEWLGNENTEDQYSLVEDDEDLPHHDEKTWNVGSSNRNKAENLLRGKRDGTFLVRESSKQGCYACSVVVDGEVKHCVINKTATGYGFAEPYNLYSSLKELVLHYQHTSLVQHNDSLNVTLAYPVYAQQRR
# PROCEDURE DETAILS: ADP-Glo Biochemical PIK3CA Kinase Assay
MEASURED ATTRIBUTE: IC50

Sample records with IC50:
| COMPOUND | IC50 |
| --- | --- |
| C=CC(CC(=O)Nc1cccc2c1C(c1cc(F)ccc1Cl)NC2=O)C(C)C(F)(F)F (mixture of isomers) | 1000 to 10000 nM |
| CNc1cc(NC(=O)N2C[C@](O)(C(F)F)c3cc(F)ccc32)c2c(c1)C(=O)N[C@@H]2c1cc(F)ccc1Cl | ≤ 100 nM |
| CNC(=O)c1ccc(NC(=O)c2csc3ccccc23)c2c1C(=O)NC2c1ccccc1C (stereo not shown) | ≤ 100 nM |
| O=C(Nc1cc(CS(=O)(=O)c2cccnc2)cc2c1C(c1cc(F)ccc1Cl)NC2=O)c1cc(F)cc(C(F)(F)F)c1 (stereo not shown) | ≤ 100 nM |

// lookup IC50 for CC(C)OC(C(=O)Nc1cc(-c2ccc3ncnn3c2)cc2c1C(c1cc(F)ccc1Cl)NC2=O)c1ccccc1 (stereo not shown)
1000 to 10000 nM

// lookup IC50 for O=C(Nc1cccc2c1C1(CCc3ccccc31)NC2=O)c1cc(F)cc(C(F)(F)F)c1 (stereo not shown)
10000 to 100000 nM

// lookup IC50 for O=C(Nc1cccc2c1C(c1cc(F)ccc1Cl)NC2=O)c1cscc1C(F)(F)F (stereo not shown)
1000 to 10000 nM
